target: recombinant AcerOBP11 (Apis cerana); experiment: biochemical; assay type: binding; settings: calculated from IC50, KD = [IC50]/(1+[1-NPN]/K1-NPN); Table 1; read-out: KD
Sequence (S5CRW7 entry or part of it): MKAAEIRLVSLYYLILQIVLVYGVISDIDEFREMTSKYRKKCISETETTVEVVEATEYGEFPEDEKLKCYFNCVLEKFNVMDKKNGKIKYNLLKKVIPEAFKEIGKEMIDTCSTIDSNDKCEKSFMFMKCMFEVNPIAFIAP
measure: pKd
Give bare numbers, as −log10 of the molar value.

Sample records with pKd:
CCCCCCCCCCCCCCCC(=O)OC [Methyl palmitate]    5.36
CCCCCC(C)=O [2-Heptanone]    5.36
Cc1ccc(C=O)cc1C [3,4-Dimethylbenzaldehyde]    5.32
C=CC(=C)CCC=C(C)C [Myrcene]    4.97
CC12CCC(CC1)C(C)(C)O2 [1,8-Cineole]    5.37
CC(=O)CCCCC/C=C/C(=O)O [9-ODA, (E)-9-oxo-2-decanoic acid]    5.18

Prompt: Test system recombinant AcerOBP11 (Apis cerana); read-out pKd; what value for CC1=CCC2C(C1)C2(C)C (stereo not shown) [3-Carene] ?
Completion: 5.01
